assay: binders of probe aFSTL3 on microarray, primary screen, stem cell growth factor project, biochemical, small-molecule microarray, fluorescence 635/667 (AID 1064); conditions: higher = more signal;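 note: measures binding of the biotinylated anti-FSTL3 antibody to printed compounds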
Hi, to clarify the labels: yes (1) covers composite z-score from 0.6 upward, no (0) covers anything below 0.6.

Check out these entries, answers already filled in.
compound=C=C(C1=CCN(S(=O)(=O)c2ccc(C)cc2)C1)[C@@H](OC(C)=O)[C@@H]1CCCN1S(=O)(=O)c1ccccc1[N+](=O)[O-] assigned_label="no (0)"
compound=[N-]=[N+]=NCc1ccccc1C[C@@]1(C(=O)NCc2ccccc2)N=C(c2ccc(OCCCO)cc2)O[C@@H]1c1ccccc1 assigned_label="yes (1)"
compound=COc1ccc([Si](C)(C)[C@H]2[C@H](CCO)O[C@@]3(C(=O)N(Cc4ccc(N5C(=O)c6cccc7cccc5c67)cc4)c4ccccc43)[C@@H]2C)cc1 assigned_label="yes (1)"
compound=CC(C)(C)OC(=O)CC[C@]1(C(=O)NCc2ccccc2)N=C(c2ccc(OCCCO)cc2)O[C@H]1c1ccccc1N=[N+]=[N-] assigned_label="yes (1)"

Decide: composite z-score of CC1CC/C=C\[C@H]2OC34C=CCN(C(C)C)C(=O)[C@H]3N(C(CO)C(C)C)C(=O)[C@@H]4C2C(=O)O1 (some centres not stated) >= 0.6?
yes (1)

Decide: composite z-score of "O=C(O)[C@H]1C[C@H]2C(=O)NCC(=O)N2[C@H]1c1cccc(OCCO)c1" >= 0.6?
yes (1)

Decide: composite z-score of "C=C(COC)C(=O)CC[C@@H](OC(=O)c1ccccc1-c1ccccc1C(=O)O)c1cccc(OCCO)c1" >= 0.6?
no (0)
